Numbers sourced from PubChem BioAssay (NCI).

# System: MDA-MB-435 melanoma
# test_details: NCI-60 one-dose screen, 48 h
# settings: 10 µM unless noted
About 83,000 compounds went through this panel and 20% of them were active in at least one assay; those are over-represented in the sample as a whole. Calls of active or inactive are those of the source. The calls were made as follows: active = growth percent below 10; inactive = the rest.
Give one outcome, nothing more. List: active, inactive

(Q) Field: outcome | Entry: Cc1nn(-c2ccc(Br)cc2)c2nc3c(nc12)C(=O)C(=O)c1ccccc1-3
(A) inactive

(Q) Let us now turn to COc1ccc(C(=O)C(C)Br)cc1OC (stereo unspecified)
(A) inactive

(Q) Let us now turn to C[n+]1c2ccccc2c(NC2CCNCC2)c2[nH]c3ccccc3c21
(A) inactive

(Q) Let us now turn to O=C1/C(=N/O)CCc2ccccc21
(A) inactive

(Q) Let us now turn to CCC(C)(C)C(=O)O[C@H]1C[C@@H](C)C=C2C=C[C@H](C)[C@H](CC[C@@H]3C[C@@H](O)CC(=O)O3)[C@H]21
(A) inactive

(Q) Let us now turn to O=C(Nc1ccc(Cl)cc1Cl)Nc1ccc(-c2cccnc2)cc1N1CCC(CO)CC1
(A) inactive

(Q) Let us now turn to Cc1ccccc1-c1cc(Cc2ccccc2O)c(=O)[nH]n1
(A) inactive

(Q) Let us now turn to CCCCOc1ccc(C(C)(C)c2ccc(OCCCC)cc2)cc1
(A) inactive

(Q) Let us now turn to O=C(/C(=C/c1ccc([N+](=O)[O-])cc1)c1ccccc1)c1ccccc1
(A) inactive

(Q) Let us now turn to O=C1Cc2cc(CCn3cncn3)c(Cl)cc2N1
(A) inactive

(Q) Let us now turn to O=C(Nc1ccc(Cl)cc1)Nc1ccc(Nc2nncc3ccccc23)cc1
(A) inactive

(Q) Let us now turn to Cc1nc2cc(NC(=O)CN3CCN(CCN4C(=O)c5cccc6cccc(c56)C4=O)CC3)ccc2s1
(A) inactive

(Q) Let us now turn to COC1=CC(c2ccc[nH]2)=N/C1=C\c1[nH]c(C)c(C(=O)CCC(=O)Oc2ccc3c(c2)CCC2C3CC[C@]3(C)C(=O)CC[C@@H]23)c1C (stereo partly specified)
(A) inactive

(Q) Let us now turn to CC(C)C/C(=N\NC(=O)c1ccncc1)c1cc(Cl)ccc1O
(A) inactive

(Q) Let us now turn to [O-]/[N+](=C\C=C\c1ccccc1)c1ccccc1
(A) inactive

(Q) Let us now turn to CCC1=C(c2ccc(OC)cc2)C(C)(C)Oc2c1ccc(O)c2CN1CCCC1
(A) active

(Q) Let us now turn to Cc1nc2c(O)cccc2cc1CO
(A) inactive

(Q) Let us now turn to OC(CCC(O)(c1ccccc1)c1ccccc1)(c1ccccc1)c1ccccc1
(A) inactive

(Q) Let us now turn to Cc1ccc([N+](=O)[O-])cc1NC(=O)Nc1cccc(F)c1
(A) inactive

(Q) Let us now turn to CCn1c2ccccc2c2ccc(C(C)=O)cc21
(A) inactive

(Q) Let us now turn to O=C(Nc1cccc([N+](=O)[O-])c1)c1cccc(C(=O)Nc2cccc([N+](=O)[O-])c2)c1
(A) inactive

(Q) Let us now turn to COc1cc(C2C=C(c3ccc(C)cc3)Nc3nc(SC)[nH]c(=O)c32)ccc1Oc1ccnc2cc(Cl)ccc12 (stereo unspecified)
(A) inactive

(Q) Let us now turn to COc1ccc(C2=NN(C(C)=O)C(c3cc(OC)c(OC)c(OC)c3)C2)cc1 (stereo unspecified)
(A) inactive

(Q) Let us now turn to COc1ccc(-c2nn(-c3ccccc3)cc2/C=C2\SC(=S)N(CCc3ccc(O)cc3)C2=O)cc1
(A) inactive

(Q) Let us now turn to CC[C@H](C)C(=O)O[C@H]1C[C@@H](C)C=C2C=C[C@H](C)[C@H](CC[C@@H]3C[C@@H](O)CC(=O)O3)[C@H]21
(A) inactive

(Q) Let us now turn to Cc1cc(NC(=O)c2ccc(N)cc2)ccc1N=Nc1ccc2c(O)c(N=Nc3ccc(Cl)c(S(=O)(=O)O)c3)c(S(=O)(=O)O)cc2c1
(A) inactive

(Q) Let us now turn to COc1ccc(-n2nc3c(c2-c2ccc(OC)c(OC)c2)-c2oncc2CC3)cc1
(A) inactive

(Q) Let us now turn to COc1ccc(C2=NN(C(=O)c3cc(OC)c(OC)c(OC)c3)C(c3ccc(C#N)cc3)C2)cc1OC (stereo unspecified)
(A) active

(Q) Let us now turn to NC(N)=NN=c1c(=O)c2ccccc2c1=O
(A) inactive

(Q) Let us now turn to CCC1(c2ccccc2)Oc2ccccc2-n2c(C#N)c3ccccc3c2C1=O (stereo unspecified)
(A) inactive

(Q) Let us now turn to Cc1cc(CC(=O)O)n(C)c1C(=O)c1ccc(Cl)cc1
(A) inactive

(Q) Let us now turn to COc1cc2c(cc1OC)C1CCN3C(=O)CCC3N1CC2 (stereo unspecified)
(A) inactive

(Q) Let us now turn to CC[N+](CC)(CCOCCOCC[N+](CC)(CC)Cc1ccc([N+](=O)[O-])cc1)Cc1ccc([N+](=O)[O-])cc1
(A) inactive

(Q) Let us now turn to Cn1cc(-c2csc(-c3cn(C)c4ncccc34)n2)c2cccnc21
(A) inactive

(Q) Let us now turn to Cc1cc(C)n(C(=O)c2nn(-c3ccc(Cl)cc3)cc2O)n1
(A) inactive

(Q) Let us now turn to Cc1scc2c1N(C(=O)CN1CCN(C)CC1)c1ccccc1NC2=O
(A) inactive
